target: hsMTHFD1 DC301 (Homo sapiens, UniProt P11586); construct: We therefore expressed and purified hsMTHFD2 and hsMTHFD1_DC to test them biochemically; His-tag (vector pHis-TEV); made in house; host or cells: E. coli BL21 (DE3); test: FoID dehydrogenase (DH) enzyme assay; format: biochemical; conditions: 10 nM enzyme, read-out: IC50, carolacton inhibition on DH activity
Sequence (P11586 2-291 limits assumed): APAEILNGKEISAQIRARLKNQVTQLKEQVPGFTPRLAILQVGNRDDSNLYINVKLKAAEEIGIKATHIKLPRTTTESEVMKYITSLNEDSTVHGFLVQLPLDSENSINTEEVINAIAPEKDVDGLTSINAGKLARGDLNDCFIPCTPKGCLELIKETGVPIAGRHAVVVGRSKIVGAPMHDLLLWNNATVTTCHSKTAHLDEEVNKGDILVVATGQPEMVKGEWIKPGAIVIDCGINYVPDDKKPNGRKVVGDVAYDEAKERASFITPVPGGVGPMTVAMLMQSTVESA
RESULT TYPE: pIC50
pIC50 here: minus log base 10 of the concentration, concentration in moles per litre.

Task: Give recorded pIC50. CO[C@H](CC(=O)O)[C@@H](C)C(=O)[C@H](C)/C=C(\C)[C@H]1OC(=O)[C@H](O)[C@H](O)/C=C/[C@H](C)CCC[C@@H]1C
Result: 7.42
